# assayedTarget: MASP-2 CCP2-SP (Homo sapiens (Human), UniProt O00187)
# Sequence (O00187 445-686): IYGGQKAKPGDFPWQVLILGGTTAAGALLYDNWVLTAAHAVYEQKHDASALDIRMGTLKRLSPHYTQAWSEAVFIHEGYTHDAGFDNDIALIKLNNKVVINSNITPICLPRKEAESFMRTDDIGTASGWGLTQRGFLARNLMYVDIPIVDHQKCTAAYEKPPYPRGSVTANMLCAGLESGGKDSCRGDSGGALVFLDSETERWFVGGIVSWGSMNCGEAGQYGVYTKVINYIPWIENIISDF
# Sequence (O00187 364-432 partner): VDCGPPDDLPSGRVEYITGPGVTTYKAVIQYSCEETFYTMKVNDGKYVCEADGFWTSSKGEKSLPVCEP
# protocolDetails: MASP-2 co-crystallization, X-ray crystallography and structure analysis (H-bonds, van der Waals contacts)
# Set-up: unit not given beside the values
# runParameters: Table A5-2 pharmacophore distance, S3/S4 region
For each entry below, report its d(O2,H3) value.
One number for each entry.

// solved cases for d(O2,H3) follow
- compound: "C[C@H](NC(=O)[C@@H](CCc1ccccc1)NCc1ccc(N2CCOCC2)cc1)C(=O)NCc1ccc(C(=N)N)cc1"
  assayedTarget: "MASP-2 CCP2-SP (Homo sapiens (Human), UniProt O00187)"
  d(O2,H3): 5.29
- compound: "C[C@H](NC(=O)[C@H]1C[C@@H](c2ccccc2)CCN1)C(=O)NCc1cc(Cl)ccc1O.Cl [1078_1]"
  assayedTarget: "MASP-2 CCP2-SP (Homo sapiens (Human), UniProt O00187)"
  d(O2,H3): 2.93
- compound: "C[C@H](NC(=O)[C@H](N)CCCc1ccccc1)C(=O)NCc1ccc(C(=N)N)cc1.Cl.Cl [1042_2]"
  assayedTarget: "MASP-2 CCP2-SP (Homo sapiens (Human), UniProt O00187)"
  d(O2,H3): 5.89

Okay, next one:
INPUT: Complete the entry with d(O2,H3) for CC(NC(=O)C(CCc1ccccc1)NCCCc1ccc(O)cc1)C(=O)NCc1ccc(C(=N)N)cc1.Cl.Cl (stereo not shown)
OUTPUT: 5.36

###

For each entry below, report its Pharmacophore torsion angle a(H4, O1, O2, H3) value.
# assayedTarget: UniProt:O00187
# protocolDetails: MASP-2 co-crystallization, X-ray crystallography and structure analysis (H-bonds, van der Waals contacts)
# runParameters: Table A7-1; between pharmacophore elements of the bound compound
Where a name gives a salt, the structure may show the parent alone.
One number for each entry.

// solved cases for Pharmacophore torsion angle a(H4, O1, O2, H3) follow
- compound: "Cc1nc(N)ccc1CNC(=O)[C@H](C)NC(=O)[C@H]1C[C@@H](c2cccc3ccccc23)CCN1.Cl.Cl [1297_4]"
  value: 51.40
- compound: "C[C@H](NC(=O)[C@H]1C[C@@H](c2ccccc2)CCN1)C(=O)NCc1cc(Cl)ccc1O.Cl [1078_7]"
  value: "−121.10"

Hi, could you look up Pharmacophore torsion angle a(H4, O1, O2, H3) for each item in my list?
1. C[C@H](NC(=O)[C@H]1C[C@H](Cc2ccccc2)CN1)C(=O)NCc1ccc(C(=N)N)cc1.Cl.Cl [1306_2]
2. C[C@H](NC(=O)[C@H](N)CCCc1ccccc1)C(=O)NCc1ccc(C(=N)N)cc1.Cl.Cl [1042_1]
3. C[C@H](NC(=O)[C@H]1C[C@H](Cc2ccccc2)CN1)C(=O)NCc1ccc(C(=N)N)cc1.Cl.Cl [1306_1]
4. C[C@H](NC(=O)[C@H](N)C1Cc2ccccc2C1)C(=O)NCc1ccc2c(N)nccc2c1.Cl.Cl [1088_A]
5. Cc1nc(N)ccc1CNC(=O)[C@H](C)NC(=O)[C@H]1C[C@H](Cc2ccccc2-c2ccccc2)CN1 [compound 1373, Di-trifluoroacetate salt]

OUTPUT:
1: 40.51; 2: −19.99; 3: 36.21; 4: 49.33; 5: 50.98

###

# assayedTarget: MASP-2 CCP2-SP (Homo sapiens (Human))
# protocolDetails: MASP-2 co-crystallization, X-ray crystallography and structure analysis (H-bonds, van der Waals contacts)
# runParameters: Table A7-2; between pharmacophore elements of the bound compound
Structures can show the parent of a compound that is named as a salt.
measuredMetric: Pharmacophore torsion angle a(O1, O2, N2, CA2)
One number for each entry.

// solved cases for Pharmacophore torsion angle a(O1, O2, N2, CA2) follow
- molecule: "N=C(N)c1ccc(CNC(=O)C(CF)NC(=O)[C@H](N)CCc2ccccc2)cc1 (stereo partly shown) [compound 1050, Dihydrochloride]"
  value: 147.29
- molecule: "C[C@H](NC(=O)[C@H]1C[C@@H](c2ccccc2)CCN1)C(=O)NCc1cc(Cl)ccc1O.Cl [1078_8]"
  value: 143.43
- molecule: "CC(=O)Nc1ccc(CCNC(CCc2ccccc2)C(=O)NC(C)C(=O)NCc2ccc(C(=N)N)cc2)cc1.Cl.Cl (stereo not shown) [1345_2]"
  value: 129.85
- molecule: "C[C@H](NC(=O)[C@H]1C[C@@H](c2ccccc2)CCN1)C(=O)NCc1cc(Cl)ccc1O.Cl [1078_9]"
  value: 146.06

Hi, could you look up Pharmacophore torsion angle a(O1, O2, N2, CA2) for each item in my list?
1. C[C@H](NC(=O)[C@H]1C[C@@H](c2ccccc2)CCN1)C(=O)NCc1cc(Cl)ccc1O.Cl [1078_12]
2. C[C@H](NC(=O)[C@H](N)C1Cc2ccccc2C1)C(=O)NCc1ccc2nc(N)[nH]c2c1 [compound 1059]
3. Cc1nc(N)ccc1CNC(=O)[C@H](C)NC(=O)[C@H]1C[C@H](Cc2ccccc2-c2ccccc2)CN1 [compound 1373, Di-trifluoroacetate salt]

OUTPUT:
1. 110.39
2. 134.69
3. 127.58

###

# assayedTarget: MASP-2 CCP2-SP (Homo sapiens (Human))
# protocolDetails: MASP-2 co-crystallization, X-ray crystallography and structure analysis (H-bonds, van der Waals contacts)
# Design: unit not given beside the values
# runParameters: Table A5-2 pharmacophore distance, S3/S4 region
Where a name gives a salt, the structure may show the parent alone.
For each entry below, report its d(O2,H3) value.
One number for each entry.

- molecule: "C[C@H](NC(=O)[C@H](N)CCc1ccccc1)C(=O)NCc1ccc(N)nc1.Cl.Cl [1007_1]"
  measuredMetric: "d(O2,H3)"
  value: 4.41
- molecule: "C[C@H](NC(=O)[C@H](N)CCc1cc(Cl)cc(Cl)c1)C(=O)NCc1ccc(C(=N)N)cc1"
  measuredMetric: "d(O2,H3)"
  value: 5.85
- molecule: "CC(NC(=O)C(CCc1ccccc1)NCc1ccc(C(=O)N2CCOCC2)cc1)C(=O)NCc1ccc(C(=N)N)cc1.Cl.Cl (stereo not drawn)"
  measuredMetric: "d(O2,H3)"
  value: 2.71
- molecule: "C[C@H](NC(=O)[C@H]1C[C@@H](c2ccccc2)CN1)C(=O)NCc1ccc(C(=N)N)cc1"
  measuredMetric: "d(O2,H3)"
  value: 3.99
- molecule: "Cc1cnc(NCCc2ccccc2)c(=O)n1CC(=O)NCc1ccc2nc(N)[nH]c2c1"
  measuredMetric: "d(O2,H3)"
  value: 7.20
- molecule: "C[C@H](NC(=O)[C@H](N)C1Cc2ccccc2C1)C(=O)NCc1ccc2nc(N)[nH]c2c1"
  measuredMetric: "d(O2,H3)"
  value: 4.97
- molecule: "C[C@H](NC(=O)[C@H]1C[C@@H](c2ccccc2)CCN1)C(=O)NCc1cc(Cl)ccc1O.Cl [1078_11]"
  measuredMetric: "d(O2,H3)"
  value: 3.05
- molecule: "Cc1nc(N)ccc1CNC(=O)[C@H](C)NC(=O)[C@H]1C[C@H](Cc2ccccc2Br)CN1.O=C(O)C(F)(F)F.O=C(O)C(F)(F)F [1372_B]"
  measuredMetric: "d(O2,H3)"
  value: 2.23

Hi, could you look up d(O2,H3) for each item in my list?
1. Cc1nc(N)ccc1CNC(=O)[C@H](C)NC(=O)[C@H]1C[C@@H](c2cccc3ccccc23)CCN1.Cl.Cl [1297_5]
2. C[C@H](NC(=O)[C@H]1C[C@@H](c2ccccc2)CCN1)C(=O)NCc1cc(Cl)ccc1O.Cl [1078_8]
3. Cc1cc(Cl)cc(CNC(=O)[C@H](C)NC(=O)[C@H]2C[C@H](Cc3ccccc3)CN2)c1O
4. Cc1nc(N)ccc1CNC(=O)[C@H](C)NC(=O)[C@H]1C[C@H](Cc2cccc(-c3ccccc3)c2)CN1
5. Cc1nc(N)ccc1CNC(=O)[C@H](C)NC(=O)[C@H]1C[C@@H](c2cccc3ccccc23)CCN1.Cl.Cl [1297_2]

OUTPUT:
4.06
2.69
2.09
4.44
3.98

Hi, could you look up d(O2,H3) for each item in my list?
1. Cc1cccc([C@H]2CN[C@@H](C(=O)N[C@@H](C)C(=O)NCc3ccc(N)nc3C)C2)c1 [compound 1257, Dihydrochloride]
2. Cc1nc(N)ccc1CNC(=O)[C@H](C)NC(=O)[C@H]1C[C@H](Cc2cccc(Cl)c2)CN1.Cl.Cl [1328_4]

OUTPUT:
1: 2.18; 2: 4.71

###

For each entry below, report its Pharmacophore torsion angle a(C5, CA1, O1, H4) value.
# assayedTarget: MASP-2 CCP2-SP (Homo sapiens (Human))
# protocolDetails: MASP-2 co-crystallization, X-ray crystallography and structure analysis (H-bonds, van der Waals contacts)
# runParameters: Table A7-1; between pharmacophore elements of the bound compound
Answers are plain numbers.

// solved cases for Pharmacophore torsion angle a(C5, CA1, O1, H4) follow
- compound: "C[C@H](NC(=O)[C@H]1C[C@@H](c2ccccc2)CCN1)C(=O)NCc1cc(Cl)ccc1O.Cl [1078_7]"
  value: 30.48
- compound: "Cc1cc(Cl)cc(CNC(=O)[C@H](C)NC(=O)[C@H]2C[C@H](Cc3ccccc3)CN2)c1O"
  value: "−6.78"
- compound: "C[C@H](NC(=O)[C@H]1C[C@@H](c2ccccc2)CCN1)C(=O)NCc1cc(Cl)ccc1O.Cl [1078_2]"
  value: 38.04

Okay, next one:
INPUT: Complete the entry with Pharmacophore torsion angle a(C5, CA1, O1, H4) for C[C@H](NC(=O)[C@H]1C[C@@H](c2ccccc2)CCN1)C(=O)NCc1cc(Cl)ccc1O.Cl [1078_11]
OUTPUT: 37.14
